# ASSAY_COMMENT: melting temperature; melt of duplexes
# REPORTED_CONDITIONS: sodium 0.0675 M; strand 1 µM
REPORTED_PROPERTY: Tm (°C)
One number for each entry, in °C.

Dear colleague, could you send me Tm for each of the items below? Thanks.
1. CGACGTGCAGGATGTGCTG+CAGCACATAGAGCACGTCG ((((((((...((((((((+))))))))...))))))))
2. CGACGTGCGTCATGTGCTG+CAGCACATTGGGCACGTCG ((((((((...((((((((+))))))))...))))))))
3. CGACGTGCAAGATGTGCTG+CAGCACATACGGCACGTCG ((((((((...((((((((+))))))))...))))))))
4. CGACGTGCTAAATGTGCTG+CAGCACATCTGGCACGTCG ((((((((.(.((((((((+)))))))).).))))))))

Completion:
49.4
49.9
49.2
51.1

Reference for the values: the array DNA melting data of Ke et al.
